IC50: recorded values
tested on: Influenza A virus; test: Antiviral activity against Influenza A virus (A/duck/Tsukuba/700/2007(H7N7)) infected in MDCK cells preincubated for 1 hr followed by infection measured after 19 to 20 hrs by galactosidase-based fluorescence assay and peroxidase-based chromogenic assay; type: functional, organism-based
Provide only the numeric value, understood in nM.

Known IC50 results, listed for orientation:
| Molecular String | Measured Target | IC50 [nM] |
| --- | --- | --- |
| CCCCC(=O)NC[C@@H](O)[C@@H](O)[C@@H]1OC(C(=O)O)=C[C@H](NC(=N)N)[C@H]1NC(C)=O.O=C(O)C(F)(F)F | Influenza A virus | 5020 |
| CC(=O)N[C@H]1[C@H]([C@H](O)[C@H](O)CO)OC(C(=O)O)=C[C@@H]1NC(=N)N | Influenza A virus | 58.4 |
| CC(=O)N[C@H]1[C@H]([C@H](O)[C@H](O)CNC(=O)C2CC2)OC(C(=O)O)=C[C@@H]1NC(=N)N.O=C(O)C(F)(F)F | Influenza A virus | 276 |

Which IC50 reading was recorded for the compound CCC(CC)OC[C@@H]1CC(C(=O)O)=C[C@H](N)[C@H]1NC(C)=O ? 4.74

* * *

tested on: Influenza A virus; test: Antiviral activity against Influenza A virus (A/mallard/Hokkaido/24/2009(H5N1)) infected in MDCK cells preincubated for 1 hr followed by infection measured after 19 to 20 hrs by galactosidase-based fluorescence assay and peroxidase-based chromogenic assay; format: functional, organism-based
Reported Endpoint: IC50
Respond with a number, then the unit of measure.

See these solved cases before continuing.
| Molecular String | Result |
| --- | --- |
| CCCCC(=O)NC[C@@H](O)[C@@H](O)[C@@H]1OC(C(=O)O)=C[C@H](NC(=N)N)[C@H]1NC(C)=O.O=C(O)C(F)(F)F | 8.3 µM |
| CCC(CC)OC[C@@H]1CC(C(=O)O)=C[C@H](N)[C@H]1NC(C)=O | 0.0282 µM |
| CC(=O)N[C@H]1[C@H]([C@H](O)[C@H](O)CNC(=O)C2CC2)OC(C(=O)O)=C[C@@H]1NC(=N)N.O=C(O)C(F)(F)F | 0.396 µM |

Entry CC(=O)N[C@H]1[C@H]([C@H](O)[C@H](O)CO)OC(C(=O)O)=C[C@@H]1NC(=N)N has what IC50? 0.0156 µM

* * *

Target: UniProt:Q8WWR8
Sequence (Q8WWR8 whole entry): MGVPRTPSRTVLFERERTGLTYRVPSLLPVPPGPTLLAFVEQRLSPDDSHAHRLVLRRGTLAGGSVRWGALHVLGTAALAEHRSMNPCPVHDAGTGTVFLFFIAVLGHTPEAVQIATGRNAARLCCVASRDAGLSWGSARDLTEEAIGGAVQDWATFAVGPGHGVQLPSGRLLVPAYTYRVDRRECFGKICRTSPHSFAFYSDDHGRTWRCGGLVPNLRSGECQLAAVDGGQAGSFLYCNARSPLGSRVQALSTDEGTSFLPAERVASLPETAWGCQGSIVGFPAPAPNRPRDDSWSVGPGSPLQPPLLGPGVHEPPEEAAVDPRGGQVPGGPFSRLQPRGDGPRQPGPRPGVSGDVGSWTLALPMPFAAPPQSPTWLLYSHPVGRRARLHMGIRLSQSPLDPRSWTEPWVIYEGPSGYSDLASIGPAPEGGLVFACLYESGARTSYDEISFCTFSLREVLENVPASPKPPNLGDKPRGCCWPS
Test: Inhibition of human Neu4 expressed in HEK293T cells using 4MU-Neu5Ac as substrate incubated for 30 mins by HPLC analysis
Type: cell-based, HEK-293T
pIC50: −log10 of the molar value.
Reported Endpoint: pIC50

| Molecular String | pIC50 |
| --- | --- |
| CC(=O)N[C@H]1[C@H]([C@H](O)[C@H](O)CNC(=O)C2CC2)OC(C(=O)O)=C[C@@H]1NC(=N)N.O=C(O)C(F)(F)F | < 3.00 |

Look up pIC50: CCCCC(=O)NC[C@@H](O)[C@@H](O)[C@@H]1OC(C(=O)O)=C[C@H](NC(=N)N)[C@H]1NC(C)=O.O=C(O)C(F)(F)F < 3.15
